Listing of entries alongside the reported pIC50.
- assayTarget: HSP60/HSP10 (Homo sapiens, UniProt P10809)
- Sequence (P10809 whole entry): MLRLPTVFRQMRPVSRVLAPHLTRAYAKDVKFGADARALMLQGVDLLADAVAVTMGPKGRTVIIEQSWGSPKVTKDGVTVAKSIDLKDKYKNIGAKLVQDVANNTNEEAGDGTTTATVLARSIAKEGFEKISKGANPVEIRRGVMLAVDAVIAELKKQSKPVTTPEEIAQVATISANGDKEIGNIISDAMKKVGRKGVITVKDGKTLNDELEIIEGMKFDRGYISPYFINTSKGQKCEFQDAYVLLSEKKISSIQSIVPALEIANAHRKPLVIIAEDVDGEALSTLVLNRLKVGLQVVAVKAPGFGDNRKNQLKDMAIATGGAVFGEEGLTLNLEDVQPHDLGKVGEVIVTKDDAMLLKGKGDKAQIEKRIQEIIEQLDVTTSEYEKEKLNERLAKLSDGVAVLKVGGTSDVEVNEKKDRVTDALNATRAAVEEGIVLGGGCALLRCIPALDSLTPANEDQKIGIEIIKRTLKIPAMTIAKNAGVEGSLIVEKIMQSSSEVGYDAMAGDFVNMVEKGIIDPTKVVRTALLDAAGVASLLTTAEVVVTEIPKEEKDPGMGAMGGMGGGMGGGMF
- Sequence (P61604 whole entry, further chain): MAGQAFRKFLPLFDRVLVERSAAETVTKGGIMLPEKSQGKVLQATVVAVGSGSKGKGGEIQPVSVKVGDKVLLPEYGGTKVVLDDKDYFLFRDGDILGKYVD
Recall that pIC50 is obtained by taking minus log10 of the concentration measured in molar.

Consider the worked cases shown below.
Query: # input molecule: CN(C)c1ccc(C(=C2C=CC(=[N+](C)C)C=C2)c2ccc(N(C)C)cc2)cc1 ; wanted: its pIC50
Result: 5.24

Query: # input molecule: CCCCCCCCCCCCCCCCC(C(=O)O)C(O)(CC(=O)O)C(=O)O (stereo unspecified) ; wanted: its pIC50
Result: 5.40

Query: # input molecule: Oc1c(Cl)cc(Cl)c(Cl)c1Cc1c(O)c(Cl)cc(Cl)c1Cl ; wanted: its pIC50
Result: 5.89

Query: # input molecule: CCCCCCCCCCCCCCCC(=O)OC[C@H](O)[C@H]1OC(=O)C(O)=C1O [ASCORBYL PALMITATE] ; wanted: its pIC50
Result: 5.51

Others:
Query: # input molecule: CCCCC/C=C\C/C=C\C/C=C\C/C=C\CCCC(=O)O ; wanted: its pIC50
Result: 5.35

Query: # input molecule: CC[C@H](C)[C@H]1O[C@]2(C=C[C@@H]1C)C[C@@H]1C[C@@H](C/C=C(\C)[C@@H](O[C@H]3C[C@H](OC)[C@@H](O[C@H]4C[C@H](OC)[C@@H](O)[C@H](C)O4)[C@H](C)O3)[C@@H](C)/C=C/C=C3\CO[C@@H]4[C@H](O)C(C)=C[C@@H](C(=O)O1)[C@]34O)O2 ; wanted: its pIC50
Result: 4.82

----------
pIC50: −log10 of the molar value.
Here's a batch of compounds along with measured pIC50 for Chaperonin GroEL (Escherichia coli (strain K12), UniProt P0A6F5).

Consider the worked cases shown below.
Query: # input compound: O=c1c(O)c(-c2ccc(O)c(O)c2)oc2c(O)c(O)cc(O)c12 [GOSSYPETIN] ; wanted: its pIC50
Result: < 3.60

Query: # input compound: CCc1oc2ccccc2c1C(=O)c1cc(Br)c(O)c(Br)c1 [BENZBROMARONE] ; wanted: its pIC50
Result: < 3.60

Query: # input compound: Oc1ccc(Cl)cc1Cc1cc(Cl)ccc1O [DICHLOROPHEN] ; wanted: its pIC50
Result: < 3.60

Query: # input compound: Cc1cc2nc3c(=O)[nH]c(=O)nc-3n(C[C@H](O)[C@H](O)[C@H](O)CO)c2cc1C [RIBOFLAVIN] ; wanted: its pIC50
Result: < 3.60

Query: # input compound: O=c1c(O)c(-c2ccc(O)cc2O)oc2cc(O)cc(O)c12 [MORIN] ; wanted: its pIC50
Result: < 3.60

Query: # input compound: C=C(NC(=O)C(=C)NC(=O)c1csc(C2=N[C@@H]3c4csc(n4)[C@H]4NC(=O)c5csc(n5)[C@H]([C@](C)(O)[C@@H](C)O)NC(=O)[C@H]5CSC(=N5)/C(=C/C)NC(=O)[C@H]([C@@H](C)O)NC(=O)c5csc(n5)[C@]3(CC2)NC(=O)[C@H](C)NC(=O)C(=C)NC(=O)[C@H](C)NC(=O)[C@H]([C@@H](C)CC)N[C@@H]2C=Cc3c([C@H](C)O)cc(nc3[C@H]2O)C(=O)O[C@@H]4C)n1)C(N)=O [THIOSTREPTON] ; wanted: its pIC50
Result: < 3.60

Query: # input compound: Cc1cc(-c2ccc(/N=N/c3ccc4c(S(=O)(=O)O)cc(S(=O)(=O)O)c(N)c4c3O)c(C)c2)ccc1/N=N/c1ccc2c(S(=O)(=O)O)cc(S(=O)(=O)O)c(N)c2c1O [EVANS BLUE] ; wanted: its pIC50
Result: 3.79

Query: # input compound: Cc1cc2c(C(C)C)c(O)c(O)c(C=O)c2c(O)c1-c1c(C)cc2c(C(C)C)c(O)c(O)c(C=O)c2c1O ; wanted: its pIC50
Result: < 3.60

Query: # input compound: C[C@H](CCC(=O)O)[C@H]1CC[C@H]2[C@@H]3CC[C@@H]4C[C@H](O)CC[C@]4(C)[C@H]3CC[C@]12C [LITHOCHOLIC ACID] ; wanted: its pIC50
Result: < 3.60

Query: # input compound: Oc1c(Cl)cc(Cl)c(Cl)c1Cc1c(O)c(Cl)cc(Cl)c1Cl [HEXACHLOROPHENE] ; wanted: its pIC50
Result: 3.82

Others:
Query: # input compound: COc1ccc(-c2ccc3cc(C(=O)O)ccc3c2)cc1C12CC3CC(CC(C3)C1)C2 ; wanted: its pIC50
Result: < 3.60

Query: # input compound: CC[C@H]1OC(=O)[C@H](C)[C@@H](O[C@H]2C[C@@](C)(OC)[C@@H](O)[C@H](C)O2)[C@H](C)[C@@H](O[C@@H]2O[C@H](C)C[C@H](N(C)C)[C@H]2O)[C@](C)(O)C[C@@H](C)C(=O)[C@H](C)[C@@H](O)[C@]1(C)O [ERYTHROMYCIN] ; wanted: its pIC50
Result: < 3.60

Query: # input compound: Cc1cc2nc3c(=O)[nH]c(=O)nc-3n(C[C@H](O)[C@H](O)[C@H](O)COP(=O)(O)O)c2cc1C [RIBOFLAVIN 5'-PHOSPHATE SODIUM] ; wanted: its pIC50
Result: < 3.60

----------
- assayTarget: HSP60/HSP10 (Homo sapiens);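 note: His-tagged human HSP60 with HSP10 refolding denatured MDH, read as MDH activity on mesoxalate by malachite green spectrometry, inhibition of refolding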
readout: pIC50
Recall that pIC50 is obtained by taking minus log10 of the concentration measured in molar.

Consider the worked cases shown below.
Query: Tell me reported pIC50 for C=C1CC[C@H](O)C/C1=C/C=C1\CCC[C@]2(C)[C@@H]([C@H](C)CCCC(C)C)CC[C@@H]12 , tested with HSP60/HSP10 (Homo sapiens).
Result: 4.96

Query: Tell me reported pIC50 for Oc1ccc(Cl)cc1Cc1cc(Cl)ccc1O , tested with HSP60/HSP10 (Homo sapiens).
Result: 4.77

Query: Tell me reported pIC50 for O=C(OC[C@H]1O[C@@H](OC(=O)c2cc(O)c(O)c(OC(=O)c3cc(O)c(O)c(O)c3)c2)[C@H](OC(=O)c2cc(O)c(O)c(OC(=O)c3cc(O)c(O)c(O)c3)c2)[C@@H](OC(=O)c2cc(O)c(O)c(OC(=O)c3cc(O)c(O)c(O)c3)c2)[C@@H]1OC(=O)c1cc(O)c(O)c(OC(=O)c2cc(O)c(O)c(O)c2)c1)c1cc(O)c(O)c(OC(=O)c2cc(O)c(O)c(O)c2)c1 , tested with HSP60/HSP10 (Homo sapiens).
Result: 5.42

Query: Tell me reported pIC50 for O=C(O[C@@H]1Cc2c(O)cc(O)cc2O[C@@H]1c1cc(O)c(O)c(O)c1)c1cc(O)c(O)c(O)c1 [EPIGALOCATECHIN GALLATE] , tested with HSP60/HSP10 (Homo sapiens).
Result: 5.64

Query: Tell me reported pIC50 for O=C(/C=C/c1ccc(O)cc1)c1ccccc1 [4-HYDROXYCHALCONE] , tested with HSP60/HSP10 (Homo sapiens).
Result: 4.66

Query: Tell me reported pIC50 for CC1=C(/C=C/C(C)=C/C=C/C(C)=C/C(=O)O)C(C)(C)CCC1 , tested with HSP60/HSP10 (Homo sapiens).
Result: 5.28

Others:
Query: Tell me reported pIC50 for O=C1C=C2CC3(O)COc4c(ccc(O)c4O)C3=C2C=C1O (stereo not drawn) , tested with HSP60/HSP10 (Homo sapiens).
Result: 5.44

----------
Listing of entries alongside the reported pIC50.
- assayTarget: Thiosulfate sulfurtransferase (Homo sapiens);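 note: native rhodanese of unspecified species, enzyme activity read after 45 min by spectrophotometric detection of Fe(SCN)3 colour, IC50 reflects activity reduction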
- Sequence (Q16762 whole entry): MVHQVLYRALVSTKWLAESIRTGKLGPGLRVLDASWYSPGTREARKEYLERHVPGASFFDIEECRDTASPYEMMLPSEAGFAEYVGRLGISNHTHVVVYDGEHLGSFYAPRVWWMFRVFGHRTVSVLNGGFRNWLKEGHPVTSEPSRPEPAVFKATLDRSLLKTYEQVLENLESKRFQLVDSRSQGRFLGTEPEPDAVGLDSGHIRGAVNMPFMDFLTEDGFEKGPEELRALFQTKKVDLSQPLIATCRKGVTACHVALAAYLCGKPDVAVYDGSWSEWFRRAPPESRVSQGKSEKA
Recall that pIC50 is obtained by taking minus log10 of the concentration measured in molar.

Query: # input compound: O=C1c2ccccc2C(=O)c2c(O)c(O)cc(O)c21 ; wanted: its pIC50
Result: 5.64

Query: # input compound: COc1cc(/C=C/C(=O)CC(=O)/C=C/c2ccc(O)c(OC)c2)ccc1O ; wanted: its pIC50
Result: 4.25

Query: # input compound: Oc1c(Cl)cc(Cl)c(Cl)c1Cc1c(O)c(Cl)cc(Cl)c1Cl ; wanted: its pIC50
Result: 4.29

Others:
Query: # input compound: Cc1cc2nc3c(=O)[nH]c(=O)nc-3n(C[C@H](O)[C@H](O)[C@H](O)COP(=O)(O)O)c2cc1C [RIBOFLAVIN 5'-PHOSPHATE SODIUM] ; wanted: its pIC50
Result: 6.42
